Here, each record is paired with measured Thyroid uptake data.
test system: PSMA-expressing LNCaP tumor xenografts; experiment: Ex vivo biodistribution in LNCaP tumor-bearing mice; settings: LNCaP tumor-bearing mice, 1 h post injection, mean ± SD, n = 4
Give me the value, and tack the unit on after it.

[
  {
    "MOLECULE": "N#C[C@@H]1CC(F)(F)CN1C(=O)CNC(=O)c1ccnc2ccc(OCc3cn(CC(=O)N[C@@H](CCCCNC(=O)CN4CCN(CC(=O)[O-])CCN(CC(=O)[O-])CCN(CC(=O)[O-])CC4)C(=O)NCC(=O)NC[C@H]4CC[C@H](C(=O)N[C@@H](Cc5c6ccccc6cc6ccccc56)C(=O)NCCCC[C@H](NC(=O)N[C@@H](CCC(=O)O)C(=O)O)C(=O)O)CC4)nn3)cc12.[68Ga+3] [[^68Ga]Ga-AV01038]",
    "Thyroid uptake": "11.1 ± 1.62 %ID/g"
  },
  {
    "MOLECULE": "N#C[C@@H]1CC(F)(F)CN1C(=O)CNC(=O)c1ccnc2ccc(-c3cn(CC(=O)N[C@@H](CCCCNC(=O)CN4CCN(CC(=O)[O-])CCN(CC(=O)[O-])CCN(CC(=O)[O-])CC4)C(=O)NCC(=O)NC[C@H]4CC[C@H](C(=O)N[C@@H](Cc5c6ccccc6cc6ccccc56)C(=O)NCCCC[C@H](NC(=O)N[C@@H](CCC(=O)O)C(=O)O)C(=O)O)CC4)nn3)cc12.[68Ga+3] [[^68Ga]Ga-AV01030]",
    "Thyroid uptake": "8.33 ± 0.41 %ID/g"
  }
]

Please find the next molecule below.
For record N#C[C@@H]1CC(F)(F)CN1C(=O)CNC(=O)c1ccnc2ccc(OCCCc3cn(CC(=O)N[C@@H](CCCCNC(=O)CN4CCN(CC(=O)[O-])CCN(CC(=O)[O-])CCN(CC(=O)[O-])CC4)C(=O)NCC(=O)NC[C@H]4CC[C@H](C(=O)N[C@@H](Cc5c6ccccc6cc6ccccc56)C(=O)NCCCC[C@H](NC(=O)N[C@@H](CCC(=O)O)C(=O)O)C(=O)O)CC4)nn3)cc12.[68Ga+3] [[^68Ga]Ga-AV01017] the listed Thyroid uptake is 12.7 ± 2.72 %ID/g

----------
Here, each record is paired with measured Blood uptake data.
System: FAP-expressing HEK293T:hFAP tumor xenografts
Assay: Ex vivo biodistribution in HEK293T:hFAP tumor-bearing mice
Settings: 1 h post injection, mean ± SD, n = 4
Method: Biodistribution studies were also conducted at 1 h post injection with [^68Ga]Ga-AV01017, [^68Ga]Ga-AV01030, [^68Ga]Ga-AV01038, [^68Ga]Ga-HTK03041, and [^68Ga]Ga-FAPI-04 in HEK293T:hFAP tumor-bearing mice (Figure 6 and Table S5, Supplementary Materials). Tumor uptake values for [^68Ga]Ga-AV01017, [^68Ga]Ga-AV01030, [^68Ga]Ga-AV01038, [^68Ga]Ga-HTK03041, and [^68Ga]Ga-FAPI-04 were 2.99 ± 0.37, 3.69 ± 0.81, 3.64 ± 0.83, 0.62 ± 0.19, and 12.5 ± 2.00 %ID/g, respectively. […]
The answer is to be given in %ID/g; state only the numeric part.

For record N#C[C@@H]1CC(F)(F)CN1C(=O)CNC(=O)c1ccnc2ccc(OCCCc3cn(CC(=O)N[C@@H](CCCCNC(=O)CN4CCN(CC(=O)[O-])CCN(CC(=O)[O-])CCN(CC(=O)[O-])CC4)C(=O)NCC(=O)NC[C@H]4CC[C@H](C(=O)N[C@@H](Cc5c6ccccc6cc6ccccc56)C(=O)NCCCC[C@H](NC(=O)N[C@@H](CCC(=O)O)C(=O)O)C(=O)O)CC4)nn3)cc12.[68Ga+3] [[^68Ga]Ga-AV01017] the listed Blood uptake is 11.9

For record N#C[C@@H]1CC(F)(F)CN1C(=O)CNC(=O)c1ccnc2ccc(OCc3cn(CC(=O)N[C@@H](CCCCNC(=O)CN4CCN(CC(=O)[O-])CCN(CC(=O)[O-])CCN(CC(=O)[O-])CC4)C(=O)NCC(=O)NC[C@H]4CC[C@H](C(=O)N[C@@H](Cc5c6ccccc6cc6ccccc56)C(=O)NCCCC[C@H](NC(=O)N[C@@H](CCC(=O)O)C(=O)O)C(=O)O)CC4)nn3)cc12.[68Ga+3] [[^68Ga]Ga-AV01038] the listed Blood uptake is 7.45

Where do these numbers come from? They come from paper PMC9921851.
